target: CA I (Homo sapiens, UniProt P00915); construct: gene CA1; recombinant; assay: biochemical; parameters: stopped-flow CO2 hydration assay of recombinant human CA isoforms, inhibition constant; conditions: 6 h incubation
Sequence (P00915 2-261): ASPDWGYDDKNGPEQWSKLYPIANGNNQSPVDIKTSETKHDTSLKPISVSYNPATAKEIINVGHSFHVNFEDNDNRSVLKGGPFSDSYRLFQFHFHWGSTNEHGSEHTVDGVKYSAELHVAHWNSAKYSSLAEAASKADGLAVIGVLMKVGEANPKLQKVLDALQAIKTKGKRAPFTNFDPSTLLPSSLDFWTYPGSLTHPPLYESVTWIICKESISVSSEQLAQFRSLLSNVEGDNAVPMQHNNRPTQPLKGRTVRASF
measured_parameter: Ki

q: Field: Ki (CA I (Homo sapiens, UniProt P00915)). Entry: O=P1(O)CC=Cc2cc(-c3cccc(F)c3)ccc2O1
a: > 100 µM

----------
// values below are reported Ki
molecular target: CA I (Homo sapiens, UniProt P00915); construct: gene CA1; recombinant; experiment: stopped-flow CO2 hydrase assay; type: biochemical; conditions: read-out: KI (μM)^a^,^b / CA I

Observe how each entry below is paired with its result.
| compound | Ki |
| --- | --- |
| O=P1(O)CC=Cc2cccc(-c3cc(Cl)cc(Cl)c3)c2O1 [10e] | > 100 µM |
| O=[N+]([O-])c1cccc(-c2ccc3c(c2)C=CCP(=O)(O)O3)c1 | > 100 µM |
| O=P1(O)CC=Cc2cc(-c3ccc(C(F)(F)F)cc3)ccc2O1 | > 100 µM |
| COc1ccc(-c2ccc3c(c2)OP(=O)(O)CC=C3)cc1 | > 100 µM |
| O=[N+]([O-])c1ccccc1-c1cccc2c1OP(=O)(O)CC=C2 [10f] | > 100 µM |
| O=P1(O)CC=Cc2ccc(-c3cc(Cl)cc(Cl)c3)cc2O1 | > 100 µM |
| CCOC(=O)c1ccc(-c2cccc3c2OP(=O)(O)CC=C3)cc1 [10c] | > 100 µM |
| O=[N+]([O-])c1ccccc1-c1ccc2c(c1)OP(=O)(O)CC=C2 | > 100 µM |
| COc1ccc(-c2ccc3c(c2)C=CCP(=O)(O)O3)cc1 | > 100 µM |

Next:
q: // Ki lookup, key: COc1ccc(-c2cccc3c2OP(=O)(O)CC=C3)cc1 [10b]
a: > 100 µM
